measured target: native mouse MET on living cells (mouse, UniProt P16056 25-1379)
assay protocol: cell-based or functional assay
Parameter branches per spheroid, MLP29 cells, 0.5 nM: see the listing below.
measurement kind: branches per spheroid, MLP29 cells, 0.5 nM (branches)

binder="71D6 chimeric llama-human IgG1 mAb (antibody, V domains shown, llama VH on human IgG1 CH1-CH2-CH3, llama VL on human lambda CL) VH: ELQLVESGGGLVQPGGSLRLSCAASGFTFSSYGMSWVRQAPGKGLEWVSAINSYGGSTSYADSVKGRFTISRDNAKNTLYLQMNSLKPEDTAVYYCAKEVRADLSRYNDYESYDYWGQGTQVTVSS VL: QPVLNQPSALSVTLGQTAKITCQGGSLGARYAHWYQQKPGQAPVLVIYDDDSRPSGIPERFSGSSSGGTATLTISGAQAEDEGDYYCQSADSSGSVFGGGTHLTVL" result_value=32.7
binder="71A3 chimeric llama-human IgG1 mAb (antibody, V domains shown, llama VH on human IgG1 CH1-CH2-CH3, llama VL on human lambda CL) VH: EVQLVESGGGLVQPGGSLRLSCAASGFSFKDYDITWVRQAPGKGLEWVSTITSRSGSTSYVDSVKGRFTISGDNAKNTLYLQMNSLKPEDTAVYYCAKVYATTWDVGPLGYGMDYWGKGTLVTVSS VL: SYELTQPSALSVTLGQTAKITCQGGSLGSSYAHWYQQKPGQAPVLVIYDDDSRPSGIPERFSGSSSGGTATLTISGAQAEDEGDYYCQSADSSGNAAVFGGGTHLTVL" result_value=30.3
binder="71G2 chimeric llama-human IgG1 mAb (antibody, V domains shown, llama VH on human IgG1 CH1-CH2-CH3, llama VL on human lambda CL) VH: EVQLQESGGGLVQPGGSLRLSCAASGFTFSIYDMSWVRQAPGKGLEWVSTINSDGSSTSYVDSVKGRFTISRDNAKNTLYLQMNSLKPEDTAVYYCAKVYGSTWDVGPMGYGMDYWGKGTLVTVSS VL: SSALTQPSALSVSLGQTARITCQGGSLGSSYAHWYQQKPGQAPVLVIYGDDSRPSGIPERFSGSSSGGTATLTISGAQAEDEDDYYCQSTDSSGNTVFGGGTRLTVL" result_value=34
binder="76G7 chimeric llama-human IgG1 mAb (antibody, V domains shown, llama VH on human IgG1 CH1-CH2-CH3, llama VL on human lambda CL) VH: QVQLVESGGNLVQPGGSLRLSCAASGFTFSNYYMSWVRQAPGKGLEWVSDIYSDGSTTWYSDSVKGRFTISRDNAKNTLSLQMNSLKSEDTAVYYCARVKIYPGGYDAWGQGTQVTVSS VL: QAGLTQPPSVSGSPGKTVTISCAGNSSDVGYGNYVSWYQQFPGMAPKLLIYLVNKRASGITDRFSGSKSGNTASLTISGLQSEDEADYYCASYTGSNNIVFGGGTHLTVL" result_value=14.7
binder="74C8 chimeric llama-human IgG1 mAb (antibody, V domains shown, llama VH on human IgG1 CH1-CH2-CH3, llama VL on human lambda CL) VH: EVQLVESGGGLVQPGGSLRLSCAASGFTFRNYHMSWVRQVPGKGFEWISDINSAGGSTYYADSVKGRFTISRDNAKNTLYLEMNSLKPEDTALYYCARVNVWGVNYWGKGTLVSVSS VL: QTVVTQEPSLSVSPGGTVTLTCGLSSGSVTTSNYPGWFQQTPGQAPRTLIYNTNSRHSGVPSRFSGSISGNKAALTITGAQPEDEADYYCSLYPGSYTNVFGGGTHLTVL" result_value=17.3
binder="71D4 chimeric llama-human IgG1 mAb (antibody, V domains shown, llama VH on human IgG1 CH1-CH2-CH3, llama VL on human lambda CL) VH: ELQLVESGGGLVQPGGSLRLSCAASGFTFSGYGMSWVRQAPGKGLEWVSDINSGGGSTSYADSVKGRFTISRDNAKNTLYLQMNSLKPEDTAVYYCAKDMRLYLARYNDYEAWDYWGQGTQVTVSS VL: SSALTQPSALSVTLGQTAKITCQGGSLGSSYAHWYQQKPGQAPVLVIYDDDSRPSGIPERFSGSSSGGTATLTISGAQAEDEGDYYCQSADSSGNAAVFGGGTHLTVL" result_value=16
binder="71C3 chimeric llama-human IgG1 mAb (antibody, V domains shown, llama VH on human IgG1 CH1-CH2-CH3, llama VL on human lambda CL) VH: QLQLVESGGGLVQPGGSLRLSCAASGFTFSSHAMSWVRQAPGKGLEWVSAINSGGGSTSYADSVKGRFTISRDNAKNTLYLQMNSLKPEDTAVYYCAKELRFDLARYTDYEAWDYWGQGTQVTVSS VL: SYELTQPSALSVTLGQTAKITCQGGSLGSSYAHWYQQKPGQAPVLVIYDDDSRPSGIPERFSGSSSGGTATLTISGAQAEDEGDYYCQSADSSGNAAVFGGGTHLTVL" result_value=11.7
binder="71G12 chimeric llama-human IgG1 mAb (antibody, V domains shown, llama VH on human IgG1 CH1-CH2-CH3, llama VL on human kappa CL) VH: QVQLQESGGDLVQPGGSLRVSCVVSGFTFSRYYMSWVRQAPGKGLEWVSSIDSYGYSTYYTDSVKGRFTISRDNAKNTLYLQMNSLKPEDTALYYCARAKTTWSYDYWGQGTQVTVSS VL: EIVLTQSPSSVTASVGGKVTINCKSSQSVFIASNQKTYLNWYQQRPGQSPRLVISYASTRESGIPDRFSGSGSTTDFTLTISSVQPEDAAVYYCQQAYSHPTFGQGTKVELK" result_value=14
binder="76H10 chimeric llama-human IgG1 mAb (antibody, V domains shown, llama VH on human IgG1 CH1-CH2-CH3, llama VL on human lambda CL) VH: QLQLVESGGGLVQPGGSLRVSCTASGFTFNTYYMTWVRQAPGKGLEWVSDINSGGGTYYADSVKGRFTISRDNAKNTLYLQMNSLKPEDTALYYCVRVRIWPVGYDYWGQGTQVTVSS VL: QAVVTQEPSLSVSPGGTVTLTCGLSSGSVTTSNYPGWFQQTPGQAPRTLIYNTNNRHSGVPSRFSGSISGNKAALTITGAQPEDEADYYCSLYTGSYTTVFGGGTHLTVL" result_value=10.7
binder="72F8 chimeric llama-human IgG1 mAb (antibody, V domains shown, llama VH on human IgG1 CH1-CH2-CH3, llama VL on human lambda CL) VH: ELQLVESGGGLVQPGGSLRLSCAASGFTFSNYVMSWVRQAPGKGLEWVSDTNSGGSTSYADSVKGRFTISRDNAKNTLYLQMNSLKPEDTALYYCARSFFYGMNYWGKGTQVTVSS VL: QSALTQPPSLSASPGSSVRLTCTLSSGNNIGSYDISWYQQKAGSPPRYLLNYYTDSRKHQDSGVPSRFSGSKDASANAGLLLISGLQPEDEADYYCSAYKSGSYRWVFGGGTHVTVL" result_value=12.7
binder="71G3 chimeric llama-human IgG1 mAb (antibody, V domains shown, llama VH on human IgG1 CH1-CH2-CH3, llama VL on human lambda CL) VH: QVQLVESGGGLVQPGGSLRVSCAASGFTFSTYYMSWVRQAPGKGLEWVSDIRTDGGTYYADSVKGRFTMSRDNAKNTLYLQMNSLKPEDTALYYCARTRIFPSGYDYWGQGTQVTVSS VL: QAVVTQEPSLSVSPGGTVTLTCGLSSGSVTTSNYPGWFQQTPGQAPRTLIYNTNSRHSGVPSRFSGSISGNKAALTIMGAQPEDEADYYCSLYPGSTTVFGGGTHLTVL" result_value=24.7
